- System: BALB/C mice
- assay-overview: In vivo imaging of protein expressed by LNP-carrying Fluc-mRNA in mice
- recorded-conditions: at 96 hours, ratio to compound 14
measured-endpoint: average radiation intensity, times that of compound 14

compound	observed-value
COC1C(OP(=O)([O-])OC[C@H]2O[C@@H](n3cnc4c(=O)[nH]c(N)nc43)C(O)C2O)[C@@H](COP(=O)(O)OP(=O)(O)OP(=O)(O)OC[C@]23O[C@@H]([n+]4cn(C)c5c(=O)[nH]c(N)nc54)C(O[C@H]2CC(=O)N(C)C)C3O)O[C@H]1n1cnc2c(N)ncnc21 (stereo partly shown) [YK-CAP-003]	1.0 times
COC1C(OP(=O)([O-])OC[C@H]2O[C@@H](n3cnc4c(=O)[nH]c(N)nc43)C(O)C2O)[C@@H](COP(=O)(O)OP(=O)(O)OP(=O)(O)OC[C@]23O[C@@H]([n+]4cn(C)c5c(=O)[nH]c(N)nc54)C(O[C@H]2CCS(C)(=O)=O)C3O)O[C@H]1n1cnc2c(N)ncnc21 (stereo partly shown) [YK-CAP-005]	1.9 times
COC1C(OP(=O)([O-])OC[C@H]2O[C@@H](n3cnc4c(=O)[nH]c(N)nc43)C(O)C2O)[C@@H](COP(=O)(O)OP(=O)(O)OP(=O)(O)OC[C@]23O[C@@H]([n+]4cn(C)c5c(=O)[nH]c(N)nc54)C(O[C@H]2CCS(=O)(=O)N(C)C)C3O)O[C@H]1n1cnc2c(N)ncnc21 (stereo partly shown) [YK-CAP-006]	1.3 times
COC1C(OP(=O)([O-])OC[C@H]2O[C@@H](n3cnc4c(=O)[nH]c(N)nc43)C(O)C2O)[C@@H](COP(=O)(O)OP(=O)(O)OP(=O)(O)OC[C@]23O[C@@H]([n+]4cn(C)c5c(=O)[nH]c(N)nc54)C(O[C@H]2CC(F)F)C3O)O[C@H]1n1cnc2c(N)ncnc21 (stereo partly shown) [YK-CAP-004]	2.0 times
